These entries and their values trace back to ChEMBL document CHEMBL1140877.

Biological target: Heat shock protein HSP90 (Homo sapiens, UniProt P07900+P08238)
Assay: Inhibition of Hsp90 in human SKBR3 cells assessed as down-regulation of Her2 protein by ELISA
Format: cell-based
Settings: sk-br-3
reported_metric: IC50

structure_smiles=COc1ccc(C2=C(NC(=O)c3ccc(OC)c(-c4cccc(OC)c4)c3)C(=O)c3ccccc3C2=O)cc1 meas_value="> 100 µM"
structure_smiles=CC(=O)NC1=C(c2ccc(Oc3ccccc3)cc2)C(=O)c2ccccc2C1=O meas_value="24.6 µM"
structure_smiles=COc1ccc(C2=C(NC(=O)C3CCCCC3)C(=O)c3ccccc3C2=O)cc1 meas_value="2.5 µM"
structure_smiles=CC(=O)NC1=C(c2ccc3oc4ccccc4c3c2)C(=O)c2ccccc2C1=O meas_value="13.3 µM"
structure_smiles=COc1ccc(C2=C(NC(C)=O)C(=O)c3ccccc3C2=O)cc1 meas_value="2.2 µM"
structure_smiles=COc1ccc(C2=C(NC(=O)c3ccc(Cl)cc3)C(=O)c3ccccc3C2=O)cc1 meas_value="3 µM"

Using the record for COc1ccc(C2=C(NC(=O)c3cccc4ccccc34)C(=O)c3ccccc3C2=O)cc1 , state its measured IC50. 9.9 µM

Using the record for CC(=O)NC1=C(c2ccccc2)C(=O)c2ccccc2C1=O , state its measured IC50. 3.2 µM
